Recorded values, source patent US20120108422A1.

Collected logP values appear next to each entry.
ASSAY_EXPLANATION: physchem

Prompt: What value of logP has been recorded for this entry: CC(Cc1ccc(F)cc1F)CC(O)(Cn1nc[nH]c1=S)C(C)(C)C (stereo not drawn)
Response: 3.8

Prompt: Could you share which logP value was measured for CC(C)(C)C(O)(CCCCc1ccccc1)Cn1nc[nH]c1=S (stereo not drawn) ?
Response: 3.6

Prompt: If you can, please state the reported logP value of CC(C)(C)C(O)(CCCCc1ccc(Cl)cc1)Cn1nc[nH]c1=S (stereo not drawn) .
Response: 4.2
